- Tested Target: T1, human C1s (human, UniProt P09871 16-688)
- T1 construct: also called hC1s; serum-derived human C1s (CompTech)
- T1 sequence: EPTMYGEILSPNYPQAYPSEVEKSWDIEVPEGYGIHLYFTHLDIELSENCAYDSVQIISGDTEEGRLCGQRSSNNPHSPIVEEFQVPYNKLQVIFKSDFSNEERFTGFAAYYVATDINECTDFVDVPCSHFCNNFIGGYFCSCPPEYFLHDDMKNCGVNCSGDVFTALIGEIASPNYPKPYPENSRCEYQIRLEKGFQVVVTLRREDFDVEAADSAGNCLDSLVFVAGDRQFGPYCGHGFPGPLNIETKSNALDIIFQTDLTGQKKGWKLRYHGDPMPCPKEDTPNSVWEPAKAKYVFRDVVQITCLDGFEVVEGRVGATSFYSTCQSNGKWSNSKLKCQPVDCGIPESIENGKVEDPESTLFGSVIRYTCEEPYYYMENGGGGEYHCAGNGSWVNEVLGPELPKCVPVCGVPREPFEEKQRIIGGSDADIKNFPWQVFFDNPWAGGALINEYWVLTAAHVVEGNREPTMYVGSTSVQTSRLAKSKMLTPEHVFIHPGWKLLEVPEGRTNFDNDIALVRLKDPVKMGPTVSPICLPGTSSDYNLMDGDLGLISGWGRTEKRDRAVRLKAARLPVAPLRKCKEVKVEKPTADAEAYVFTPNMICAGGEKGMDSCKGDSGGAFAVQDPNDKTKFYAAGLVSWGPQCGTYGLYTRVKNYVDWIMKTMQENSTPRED
- Protocol Notes: SPR; KD pH 5.8 3 uM Ca / KD pH 7.4 1.2 mM Ca
Assay Endpoint: KD 5(-)/7(+)

[[record]]
binder = "C1_IPN92H0033-SG4GK/IPN93L0029-SK1 (antibody, human IgG4 S228P, kappa, name in Kabat numbering, V domains shown, also called IPN92H0033/IPN93L0029) VH: EVMLVESGGGLVKPGGSLRLSCAASGFTFSNYAMSWVRQAPGKGLEWVATISSGGSHTYYLDSVKGRFTISRDNSKDTLYLQMNSLRAEDTALYYCARLFTGHAMDYWGQGTLVTVSS VL: QIVLTQSPATLSLSPGERATLSCTASSSVSSSYLHWYQQKPGKAPKLWIYSTSNLASGVPSRFSGSGSGTDYTLTISSLQPEDFATYYCHQYHRLHPITFGQGTKLEIKR"
assay_endpoint = "KD 5(-)/7(+)"
readout_number = 0.6

[[record]]
binder = "C1_IPN92H0048-SG4GK/IPN93L0024-SK1 (antibody, human IgG4 S228P, kappa, name in Kabat numbering, V domains shown, also called IPN92H0048/IPN93L0024) VH: EVMLVESGGGLVKPGGSLRLSCAASGHTFSNYAMSWVRQAPGKGLEWVATISSGGSHTYYLDSVKGRFTISRDNSKDTLYLQMNSLRAEDTALYYCARLFTGHAMDYWGQGTLVTVSS VL: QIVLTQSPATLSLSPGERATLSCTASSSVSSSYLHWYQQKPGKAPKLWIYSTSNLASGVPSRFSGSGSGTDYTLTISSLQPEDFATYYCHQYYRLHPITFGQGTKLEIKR"
assay_endpoint = "KD 5(-)/7(+)"
readout_number = 1.1

[[record]]
binder = "C1_IPN009VH2-SG4GK/IPN93L0030-SK1 (antibody, human IgG4 S228P, kappa, name in Kabat numbering, V domains shown, also called IPN009VH2/IPN93L0030) VH: EVMLVESGGGLVKPGGSLRLSCAASGFTFSNYAMSWVRQAPGKGLEWVATISSGGSHTYYLDSVKGRFTISRDNSKDTLYLQMNSLRAEDTALYYCARLFTGYAMDYWGQGTLVTVSS VL: QIVLTQSPATLSLSPGERATLSCTASSSVSSSYLHWYQQKPGKAPKLWIYSTSNLASGVPSRFSGSGSGTDYTLTISSLQPEDFATYYCHQYYRHHPITFGQGTKLEIKR"
assay_endpoint = "KD 5(-)/7(+)"
readout_number = 0.1

